target: Muscarinic acetylcholine receptor M3 (Homo sapiens) (UniProt P20309); assay: ACh potentiation at muscarinic M3 subtype – cell-based, CHO-K1 hM3, calcium flux, ACh EC20, selectivity assay for M5 PAM project, dose response (AID 743115); details: CHO-K1 hM3, calcium flux Fluo-4, ACh EC20 potentiation
Sequence (P20309 whole entry, looked up): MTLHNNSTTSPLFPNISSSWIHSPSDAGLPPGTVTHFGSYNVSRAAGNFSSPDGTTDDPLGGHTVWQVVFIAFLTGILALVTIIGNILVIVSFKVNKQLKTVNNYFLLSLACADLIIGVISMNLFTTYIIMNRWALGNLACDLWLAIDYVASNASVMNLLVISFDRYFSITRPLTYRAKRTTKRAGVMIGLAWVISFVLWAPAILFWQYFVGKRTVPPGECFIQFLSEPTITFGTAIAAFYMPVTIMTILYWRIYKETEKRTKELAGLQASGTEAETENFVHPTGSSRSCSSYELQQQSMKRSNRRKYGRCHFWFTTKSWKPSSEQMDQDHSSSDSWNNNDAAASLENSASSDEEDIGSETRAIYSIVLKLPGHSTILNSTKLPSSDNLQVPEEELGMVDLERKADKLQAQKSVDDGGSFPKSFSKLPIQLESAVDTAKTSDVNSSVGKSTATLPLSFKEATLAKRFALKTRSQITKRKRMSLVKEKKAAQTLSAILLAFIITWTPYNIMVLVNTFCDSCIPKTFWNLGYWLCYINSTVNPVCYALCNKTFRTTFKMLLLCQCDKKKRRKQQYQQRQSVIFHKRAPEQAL
Quick reference: pEC50 of the listed items.
Hey, just a heads up that pEC50 is the negative log base 10 of the concentration in molar.

CCN(Cc1ccccc1C(F)(F)F)C(=O)C1CCN(S(=O)(=O)c2ccc3cn[nH]c3c2)CC1; 5.33
CCN(Cc1ccccc1Cl)C(=O)C1CCN(S(=O)(=O)c2ccc3cn[nH]c3c2)CC1; 5.54
CCN(Cc1ccccc1Cl)C(=O)C1CCN(S(=O)(=O)c2ccc3[nH]ncc3c2)CC1; 6.28
CCN(Cc1ccccc1C(F)(F)F)C(=O)C1CCN(S(=O)(=O)c2ccc3[nH]ncc3c2)CC1; 5.68
CCN(C(=O)C1CCN(S(=O)(=O)c2ccc3[nH]ncc3c2)CC1)[C@H](C)c1ccccc1; 5.66

# evaluate next
Item CCN(Cc1ccccc1C(F)(F)F)C(=O)C1(F)CCN(S(=O)(=O)c2ccc3[nH]ncc3c2)CC1 with Muscarinic acetylcholine receptor M3 (Homo sapiens) (UniProt P20309) - pEC50?
5.75
